# measured on: T1, mouse MAdCAM expressed on cells (mouse, UniProt Q61826 22-405)
# T1 construct: whole, on cells
# T1 sequence (looked up): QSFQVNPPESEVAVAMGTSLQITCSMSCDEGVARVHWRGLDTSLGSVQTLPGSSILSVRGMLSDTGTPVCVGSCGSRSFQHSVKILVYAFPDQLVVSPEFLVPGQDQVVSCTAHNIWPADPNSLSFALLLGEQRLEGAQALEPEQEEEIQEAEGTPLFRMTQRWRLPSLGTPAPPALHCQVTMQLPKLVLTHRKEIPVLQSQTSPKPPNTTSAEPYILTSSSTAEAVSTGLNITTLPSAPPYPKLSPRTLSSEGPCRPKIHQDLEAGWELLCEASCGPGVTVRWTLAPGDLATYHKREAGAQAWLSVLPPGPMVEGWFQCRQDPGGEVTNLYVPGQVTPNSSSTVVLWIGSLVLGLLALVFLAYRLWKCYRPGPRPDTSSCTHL
# assay text: cell binding

- binder: "MAdCAM Antibody Table 1 Clone 16 (scFv) scFv: EVQLLESGGGLVQPGGSLRLSCAASGFTFEDYAMHWVRQAPGKGLEWVSYLNSDGGSTSYADSVKGRFTISRDNSKNTLYLQMNSLRAEDTAVYYCAKDYCTNGVCAFDYWGQGTLVTVSSGGGGSGGGGSGGGGSGGGGSDIQMTQSPSSLSASVGDRVTITCRASQSISTYLNWYQQKPGKAPKLLIYDASNLETGVPSRFSGSGSGTDFTLTISSLQPEDFATYYCQQSYTIPITFGQGTRLEIK"
  binding result: "no binding"
- binder: "MAdCAM Antibody Table 1 Clone 3 (scFv) scFv: QVQLVQSGAEVKKPGASVKVSCKASGYPFIGQYLHWVRQAPGQGLEWMGIINPSGGSTSYAQKFQGRVTMTRDTSTSTVYMELSSLRSEDTAVYYCAREGRLSYGMDAWGQGTLVTVSSGGGGSGGGGSGGGGSGGGGSDIQMTQSPSSLSASVGDRVTITCRASQSISSYLAWYQQKPGKAPKLLIYGASTLESGVPSRFSGSGSGTDFTLTISSLQPEDFATYYCQQTWGPPFTFGQGTKLEIK"
  binding result: "binds"
- binder: "MAdCAM Antibody Table 1 Clone 17 (scFv) scFv: EVQLLESGGGLVQPGGSLRLSCAASGFTFSDSAMHWVRQAPGKGLEWVSAISGSGSTIYYADSVKGRFTISRDNSKNTLYLQMNSLRAEDTAVYYCVSDIAVAGHWYFDLWGRGTLVTVSSGGGGSGGGGSGGGGSGGGGSDIQMTQSPSSLSASVGDRVTITCRASQSISTFLNWYQQKPGKAPKLLIYAASRLEGGVPSRFSGSGSGTDFTLTISSLQPEDFATYYCQQANSFPLTFGPGTKVDIK"
  binding result: "no binding"
